Cited source for all entries: paper PMC7557147

target: TgAPN2 (Toxoplasma gondii, UniProt S8G5K8, N1303Q/N840Q); type: biochemical, Toxoplasma gondii ME49; settings: relative to hArg = 100%; 10 µM ACC substrate, 0.5 nM enzyme
Recorded Metric: normalised relative activity of TgAPN2 toward P1 substrate (%)
Reply with just the number (in %).

// field: normalised relative activity of TgAPN2 toward P1 substrate; key: N=C(N)NCCC[C@H](N)C(=O)O ; value = 81

For this compound ( NCCCC[C@H](N)C(=O)O ), measured normalised relative activity of TgAPN2 toward P1 substrate is 52

compound CC(C)C[C@H](N)C(=O)O , normalised relative activity of TgAPN2 toward P1 substrate observed: 26

For record N[C@@H](CCc1ccccc1)C(=O)O the listed normalised relative activity of TgAPN2 toward P1 substrate is 18

Per the records, this compound ( N[C@@H](CCc1ccc(O)cc1)C(=O)O ) has normalised relative activity of TgAPN2 toward P1 substrate equal to 54

The measured normalised relative activity of TgAPN2 toward P1 substrate associated with NC(N)=NCCCC[C@H](N)C(=O)O reads 100
